Just for reference, patent US20250333523A1 is where these values come from.

# EXPERIMENTAL_SYSTEM: T1, Avi/HisMsIL18BPd (recombinant mouse IL-18BP with Avi and poly-His tags) (mouse, biotinylated with BirA on the Avi tag in some assays)
# T1 chain: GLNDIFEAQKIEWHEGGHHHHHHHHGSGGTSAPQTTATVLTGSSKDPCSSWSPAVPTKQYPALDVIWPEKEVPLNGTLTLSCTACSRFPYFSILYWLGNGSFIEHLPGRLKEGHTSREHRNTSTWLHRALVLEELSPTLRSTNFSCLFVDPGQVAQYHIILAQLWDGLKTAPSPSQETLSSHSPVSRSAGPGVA
# ASSAY_METHOD_TEXT: cell-based or functional assay
Fold change of IFNγ at 10 µg/ml vs baseline, mouse splenocytes: recorded values
Numeric answer only, unit fold assumed.

The cases that follow already have their Fold change of IFNγ at 10 µg/ml vs baseline, mouse splenocytes on record.
anti-IL18BP antibody BP-14 (antibody, human IgG1, V domains shown) VH: QVQLVQSGAEVKKPGASVKVSCKASGYTFTGYYMHWVRQAPGQGLEWMGIINPRGGSTSHAQKFQGRVTMTRDTSTSTVYMELSSLRSEDTAVYYCARGLELHWFDPWGQGTLVTVSS VL: DIQMTQSPSSLSASVGDRVTITCRASQNIRSWLAWYQQKPGKAPKLLIYAASSLQSGVPSRFSGSGSGTDFTLTISSLQPEDFATYYCQQANSFPYTFGQGTKLEIK; 3.49
anti-IL18BP antibody BP-15 (antibody, human IgG1, V domains shown) VH: QVQLVQSGAEVKKPGASVKVSCKASGYTFTTYDINWVRQAPGQGLEWMGIINPSGGSTSYAQKFQGRVTMTRDTSTSTVYMELSSLRSEDTAVYYCATGIGELDFDYWGQGTLVTVSS VL: DIQMTQSPSSLSASVGDRVTITCRASQSISSYLNWYQQKPGKAPKLLIYKASTLHNGVPSRFSGSGSGTDFTLTISNLQPEDFATYYCQQAISFPLTFGGGTKVEIK; 7.94

Look at this binder and give its reported Fold change of IFNγ at 10 µg/ml vs baseline, mouse splenocytes. anti-IL18BP antibody BP-06 (antibody, human IgG1, V domains shown) VH: QIQLQQSGPELVKPGASVKISCKASGYTFTDYYLNWVKQTPGQGLEWIGWIYPGSGNTKYTEKFKDKASLTVDTSSNTAYMQLSSLTSDDTAVYFCARRGVAWFAYWGQGTLVTVSA VL: DIKMTQSPSSIYASLGERVTITCKASQDINSYLSWFQQKPGKSPKTLIHRANRLVDGVPSRFSGSGSGQDYSLTISSLEYEDMGIYYCLQHDDFPPTFGAGTNLELK
1.11

Same lookup for anti-IL18BP antibody BP-01 (antibody, human IgG1, V domains shown) VH: QVQLQQSGPEVVRPGVSVKISCKGSGYTFTDFAMYWVKQSHAKSLEWIGVISTDNGDTSYNQKFKGKATMTVDKSSSTAYMELDRLTSEDSAIYYCARSRGPFDYWGQGTALTVSS VL: DIVMTQSHKFKSTSVGDRVNITCKASQDVGTAVAWYQQKPGQSPKLLIYWASTRHIGVPDRFTGSGSGTDFTLTIRNVQSEDLADYFCQRYSSYPWTFGGGTKLEIK , please.
1.65
